The reported numbers originate from patent US8846636B2.

Test system: MCF7
Test Description: MTT cell proliferation assay, MCF7
Format: cell-based
Test Context: Homo sapiens; MCF7 cell line (mammary gland; breast)
Procedure: The antiviral and antitumor activities of the compounds of the invention were evaluated by a cellular proliferation assay. […] The color can then be quantified using a simple colorimetric assay. The results can be read on a multiwell scanning spectrophotometer (ELISA reader). […]
pIC50: −log10 of the molar value.
Here the recorded pIC50 is given for each entry.
Property Measured: pIC50

Molecule	Property Measured	Endpoint Result
CCOC(=O)C1(C)[C@@H](CO)O[C@H](n2cnc3c(NN)nc(NN)nc32)[C@@H]1O (stereo partly shown)	pIC50	< 4.00
CC1(CO)C(O)C(n2cnc3c(N)nc(Cl)nc32)O[C@@H]1CO (stereo in doubt)	pIC50	< 3.30
C[C@@]1(CO)[C@@H](CO)O[C@@H](n2cc(F)c(N)nc2=O)[C@@H]1O	pIC50	< 3.30
Nc1ccn([C@@H]2O[C@H](CO)[C@@H](O)C2(F)F)c(=O)n1 [Gemci., Gemcitabine, reference compound]	pIC50	< 3.30
